measurement.protocol: yeast display, Sf9 membrane polyspecificity reagent, FACS + sequencing; frameworks hold sequencing errors

sequence.chain | polyreactivity (PSR sort gate)
QDQHVESGGGLVQAGGSLRLSCAASVITYGRYVMGWDRQAPGKERELVAAITGSGGSTYYADSVKGRFTISRDNAKNTVYLQMNSLKAEDTAVYYCAAAGGYRFDYWGQGTQVTVSS | high polyreactivity
QVQLVESGGGLVQAGGSLRLSCAASGRTFYSYTMGWYRQAPGKERELVAAINRGGSTYYADSVKGRFTISRDNAKNTVYLQMNSLYPVDNAVYYCAVGYAHSSNRRYYYKQTHGYWGQGTQVTVSS | low polyreactivity
QVQLVESGGGLVQAGGSLRLSCAASGSTFSRYAMGWYRQAPGKERELVAAISSRGGSTYYADSVKGRFTISRDNAKNTVYLQMNSLKPEDTAVYYCNALTSYQNHVYPYDYWGQGTEVTVSS | high polyreactivity
QVQLVESGGGLVQAGGSLRLSCAASGSIFKEYAMGWYRQAPGKERELVATISWSGGSTYYADSVKGRFTISRDNAKNTVYLQMNSLKPEDTAVYYCNKSTPWWYVVRYDYWGQGTQVTVSS | high polyreactivity
QVQLVESGGGLVQAGGSLRLSSAASGYIFDLNAMGRYRQAPGKERELVAAISTGGGTYYADSVKGRFTISRDNAKNTVYLQMNSLKPEDTAVYYCAADWGYWYAEYDYWGQGTLVTVSS | low polyreactivity
QVQLVESGGGLVQAGGSLRLSCAASGSIFYYYAMGWYRQAPGKERELVAAITSRAGDTYYADSVKGRFTISRDNAKNTVYLQMNSLKPEDTAVYYCAADFPAYYDYYYWGQGTQVTVSS | low polyreactivity
QVHLVESGGGLVQAGGSLRLSSADSGRTFAYNAMRWYRPAPGKERELVAAITWSGDSTYYADSVKGRFTISRDNAKNTVYFQMNSLKPEDTEVYYCAADYFGGPSYEFDYWGQGTQVTVSS | low polyreactivity
QVQLVESGGGLVQAGCSLRLSCAASGSTVYYKAMGWYREAPGKERELVAAITSGGRTKYADSVKGRFTISRDNAKNTVYLQMNSLKPEDTAVYYCNTYNRRSGTLPKPYDYWGQGTQVTVSS | high polyreactivity
QVQLVESGGGLVQAGGSLRLSCASSGSIFSYYAKGWYIQAPGKASQLVADISQSGGTTYYADSVKGRFTISRDNAKNTVYLLKNSLKPEETAVYYCAARAPSSFDTQYYYWGEGTQVTVSS | low polyreactivity
QVQLVESGGGLVQAGGSLRLSCAASGRTVGYNAMGWYRQAPGKERELVAAISRSGDSTYYADSVKGRFTISRDNAKNTVYLQMNSLKPEDTAVYYCATRYVTTGYDYWGQGTQVTVSS | low polyreactivity
QVQLVESGGGLVQAGGSLRLSCAASGFIFYKNAMGWYRQAPGKERELVAISSSGGSTYYADSVKGRFTISRDNAKNSVYLQMNSLKPEDTAVYYCADRSRRYRGGYWGQGTQVTVSS | high polyreactivity

###

measurement.protocol: yeast display, Sf9 membrane polyspecificity reagent, FACS + sequencing; frameworks hold sequencing errors
quantity: polyreactivity (PSR sort gate)

sequence.chain | val
QVQLQESGGGLVHACGSLRPSCAASGSISDSWRMSWYRQAPGTEREFVAGITWGGTTNYADSVKGRFTISRDNAKNTVYLQMNSLKPEDTAVYYCNARQRTYYRTHRIRHKGNGYWGQGTQVTVSS | low polyreactivity
QVQLVESGGGLVQAGGSLRLSCAASGFILPNYTMGWYRQAPGKERELVAAISRGGSTNYADSVKGRFTISRDNAKNTVYLQMNSLKPEDTAVYYCAVDAWTGESYWEHYYWGQGTQVTVSS | low polyreactivity
QVQLVDSGGGLVQAGGSLRLSCAASGLTFKRYAMGWYRQAPGKERQLVASITGNGGSSYYADSVKGRFTISRDNAKNTVYLQMNSLKPEDTAVYYCNARRYVRTSQQPLYDYWGQGTQVTVSS | high polyreactivity
QVQLVESGGGLVQAGGSLRLSCASSGYIITRKAMGWYRQAPGKERELVATISSRGGRTYYADSVKGRFTISRDNAKNTVYLQMNSLKPEDTAVYYCAATPWYRTRTYDYWGQGTQVTVSS | high polyreactivity
QVQLVESGGGLVQAGGSLRLSCAASGRILGDYAMGWYIQAPGKERELVAAISSGGTTYYADSVKGRFTISRDNAKNTVYLQMNSLKPEDTAVYYCAALTSTLPAYGYWGQGTQVTVSS | low polyreactivity
QVQLVESGGGLVQAGGSLRLSCAASGGTFGAYAMGWYRQAPGKERELVAAISGSGARTYYADSVKGRFTISRDNAKNTVYVQMNSLKPEDTAVYYCAARSTGTRVGEYDYWGQGTQVTVSS | high polyreactivity
QVQLVESGGGLVQAGGSLRLSCAASGSTFEYNAMGWYRQAPGKESELVASSTNYADSVKGRFTISRDNAKNTVYFQMNSLKPEDTAVYYCSREQGVNRNHDYWGQGTQVTVSS | low polyreactivity
QVQLVESGGGLVQAGGSLRLSCAASGRIFVTNAMGWYRQAPGKERELVAAISTGGSTNYADSVKGRFTISRDNAKNTVYVQRNSLKPEDTAVYYCNRGSRYSHKYDYWGQGTQVTVSP | high polyreactivity
QVQLVESVGGLVQAGGSLRLSCAASGSIFVRNAMGWYRQAPGKERELVAGISRSGGSTNYADSVKGRFTISRDNAKNTVYLQMNSLKPEDTAVYYCAASRLVWVGRPWYQVRGDYWGQGTHVTVSS | high polyreactivity
QVQLVESGGGLVQAGGSLRLSCAASGLTFYQYAMGWYRQAPGKERELVAAISKSAGSTYYADSVKGRFTISRDNAKNTVYLQMNSLKPEDTAVYYCNAARPFTRVPRQTWKMGYWGQGTQVTVSS | high polyreactivity
QVQLVESGGGLVQAGGSLRLSCAASGSTFDPKAMGWYRQAPGKERELVAAISYTGGRTYYADSVKGRFTISRDNAKNTVYLQMNSLKPEDTAVYYCAVLVVGSTTQDEPYFSGVEHDYWGQGTQVTVSS | low polyreactivity
